src = the supplement of paper PMC10733146

Recorded measurements of viability, one per entry
System: primary AML patient cells (S011)
Experiment: viability relative to DMSO control (fraction); higher = less drug effect (more viable cells)
Details: 0.04 µM; 48 h
Number only, please.

molecule | measurementName | reportedResult
Nc1cccc2c1CN(C1CCC(=O)NC1=O)C2=O (centres undefined) [Lenalidomide] | viability | 0.644
COc1cccc2c1C(=O)c1c(O)c3c(c(O)c1C2=O)C[C@@](O)(C(C)=O)C[C@@H]3O[C@H]1C[C@H](N)[C@H](O)[C@H](C)O1 [Daunorubicin] | viability | 0.409
Nc1ccc2ncnc(NCCc3ccc(Oc4ccccc4)cc3)c2c1 [EVP4593] | viability | 0.633

We now examine a further molecule.
*Q* Complete the entry with viability for CC(C)C[C@H](NC(=O)CNC(=O)c1cc(Cl)ccc1Cl)B(O)O [Ixazomib]
*A* 1.15

====

Recorded measurements of viability, one per entry
System: primary MCL patient cells (S041)
Test: viability relative to DMSO control (fraction); higher = less drug effect (more viable cells)
Conditions: 0.2 µM; 48 h
Number only, please.

querySmiles | measurementName | reportedResult
Cc1nc(Nc2ncc(C(=O)Nc3c(C)cccc3Cl)s2)cc(N2CCN(CCO)CC2)n1 | viability | 0.67
Nc1ccc2ncnc(NCCc3ccc(Oc4ccccc4)cc3)c2c1 | viability | 0.873
CC#CC(=O)N1CCC[C@H]1c1nc(-c2ccc(C(=O)Nc3ccccn3)cc2)c2c(N)nccn12 | viability | 0.859

We now examine a further molecule.
*Q* Complete the entry with viability for C/C=C1\NC(=O)[C@H]2CSSCC/C=C/[C@H](CC(=O)N[C@H](C(C)C)C(=O)N2)OC(=O)[C@H](C(C)C)NC1=O
*A* 0.194

====

Tested on: primary MCL patient cells (S041)
Test: viability relative to DMSO control (fraction); higher = less drug effect (more viable cells)
Details: 0.024 µM; 48 h
Recorded measurements of viability, one per entry

compound | tgt | viability
CCN1CCN(Cc2ccc(Nc3ncc(F)c(-c4cc(F)c5nc(C)n(C(C)C)c5c4)n3)nc2)CC1 | primary MCL patient cells (S041) | 0.938
C[C@@H](Oc1cc(-c2cnn(C3CCNCC3)c2)cnc1N)c1c(Cl)ccc(F)c1Cl [Crizotinib] | primary MCL patient cells (S041) | 0.97

*Q* Complete the entry with viability for O=C(O)CSc1cc(NS(=O)(=O)c2ccc(Br)cc2)c2ccccc2c1O [UMI-77]
*A* 0.968

*Q* Complete the entry with viability for Nc1nc(Cl)nc2c1ncn2[C@@H]1O[C@H](CO)[C@@H](O)[C@@H]1F [Clofarabine]
*A* 0.862

====

Tested on: primary AML patient cells (S089)
Test: viability relative to DMSO control (fraction); higher = less drug effect (more viable cells)
Conditions: 0.016 µM; 48 h
Recorded measurements of viability, one per entry
Number only, please.

Reference set, count: 3
querySmiles | viability
Cc1sc2c(c1C)C(c1ccc(Cl)cc1)=N[C@@H](CC(=O)Nc1ccc(O)cc1)c1nnc(C)n1-2 | 0.894
O=C(Nc1nc2ccccc2n1CCN1CCOCC1)c1cccc([N+](=O)[O-])c1 | 0.772
CN1CC[C@H](c2c(O)cc(O)c3c(=O)cc(-c4ccccc4Cl)oc23)[C@H](O)C1 | 1.01

*Q* Complete the entry with viability for CC[C@H](Nc1ncnc2[nH]cnc12)c1nc2cccc(F)c2c(=O)n1-c1ccccc1
*A* 0.739
